A collection of binders and their measured Kd
Biological target: T1, PlGF (human, UniProt P49763)
T1 chain: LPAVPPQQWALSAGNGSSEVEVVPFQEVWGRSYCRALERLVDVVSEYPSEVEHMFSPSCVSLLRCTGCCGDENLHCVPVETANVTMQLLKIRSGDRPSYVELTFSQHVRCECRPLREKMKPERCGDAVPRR
Experiment: SPR
Numeric only. Scale: nM

DVD259 PlGF arm (antibody, V domains shown, DVD-Ig inner) VH: QVQLQQSGAELVKPGASVKISCKASGYTFTDYYINWVKLAPGQGLEWIGWIYPGSGNTKYNEKFKGKATLTIDTSSSTAYMQLSSLTSEDTAVYFCVRDSPFFDYWGQGTLLTVSS VL: DIVLTQSPDSLAVSLGERVTMNCKSSQSLLNSGMRKSFLAWYQQKPGQSPKLLIYWASTRESGVPDRFTGSGSGTDFTLTISSVQAEDVAVYYCKQSYHLFTFGSGTKLEIKR | 0.33
DVD260 PlGF arm (antibody, V domains shown, DVD-Ig outer) VH: QVQLQQSGAELVKPGASVKISCKASGYTFTDYYINWVKLAPGQGLEWIGWIYPGSGNTKYNEKFKGKATLTIDTSSSTAYMQLSSLTSEDTAVYFCVRDSPFFDYWGQGTLLTVSS VL: DIVLTQSPDSLAVSLGERVTMNCKSSQSLLNSGMRKSFLAWYQQKPGQSPKLLIYWASTRESGVPDRFTGSGSGTDFTLTISSVQAEDVAVYYCKQSYHLFTFGSGTKLEIKR | 0.012

Consider the additional binder presented here.
Notebook: DVD257 PlGF arm (antibody, V domains shown, DVD-Ig inner) VH: QVQLQQSGAELVKPGASVKISCKASGYTFTDYYINWVKLAPGQGLEWIGWIYPGSGNTKYNEKFKGKATLTIDTSSSTAYMQLSSLTSEDTAVYFCVRDSPFFDYWGQGTLLTVSS VL: DIVLTQSPDSLAVSLGERVTMNCKSSQSLLNSGMRKSFLAWYQQKPGQSPKLLIYWASTRESGVPDRFTGSGSGTDFTLTISSVQAEDVAVYYCKQSYHLFTFGSGTKLEIKR , Kd read as 0.367

Measured values drawn from patent US9029508 for this set.
